- assay.comment: qHTS of pediatric cancer cell lines to identify multiple opportunities for drug repurposing: Primary screen for BT-37 cells (AID 1347094)
- measurement.context: BT-37 viability, CellTiter-Glo luminescence, 48 h; series mostly up to 57.3 µM
Inconclusive results are not listed. The source made the active and inactive calls. Calls come from the whole dose curve; as a rule, active = well fitted cell-killing curve with a large enough effect; inconclusive = small, poorly fitted or top-dose-only effect; inactive = flat fitted curve, though single readings scatter.
Use one of these outcomes when replying: active, inactive

- molecule: "CCC(C(=O)O)C1CCC(C)C(C(C)C(O)C(C)C(=O)C(CC)C2OC3(C=CC(O)[C@@]4(CC[C@](C)(C5CC[C@@](O)(CC)C(C)O5)O4)O3)C(C)CC2C)O1 (stereo not given in full)"
  assigned.label: "active"

stdin: So what was the verdict on `O=C1NC(=O)[C@@H](c2cn3c4c(cccc24)CCC3)[C@H]1c1c[nH]c2ccccc12` in this test?
stdout: active

stdin: Which outcome was assigned to `C#C[C@]1(O)CC[C@@H]2[C@@H]3CCC4=CC(=O)CC[C@@H]4[C@H]3CC[C@@]21CC` in this test?
stdout: inactive

stdin: What did the test return for `Nc1nc2c(c(=O)[nH]1)N(C=O)[C@H](CNc1ccc(C(=O)N[C@@H](CCC(=O)O)C(=O)O)cc1)CN2` ?
stdout: active

stdin: Can you look up the reported call for `COc1cc(CCc2cc(NC(=O)c3ccc(N4C[C@@H](C)N[C@@H](C)C4)cc3)n[nH]2)cc(OC)c1` for me?
stdout: active

----------
- assay.comment: Quantitative High-Throughput drug screen in 47 multiple myeloma cell lines against the NCATS MIPE library collection: KMS26_JCRB cell viability assay (AID 1918975); note: nearly all actives have a fitted effect of over 45% in size
- measurement.context: KMS26 myeloma cells viability, CellTiter-Glo ATP, 48 h; series mostly up to 45.8 µM
Results filed as inconclusive are left out. The source made the active and inactive calls. Calls follow the shape of the dose curve; as a rule, active = well fitted cell-killing curve with a large enough effect; inconclusive = small, poorly fitted or top-dose-only effect, or effect the other way; inactive = no such curve, though single readings can be large or run the other way.
Outcomes you can answer with include only these: active, inactive

stdin: Just curious, what result did COc1ccc2c(c1OC)C(=O)OC2[C@H]1c2c(cc3c(c2OC)OCO3)CCN1C (stereo not given in full) get here?
stdout: active

stdin: Assay result, entry `CC(C)N(CC[C@H](c1ccccc1)c1cc(CO)ccc1O)C(C)C` — outcome?
stdout: inactive

stdin: Look up the recorded call for `C[C@H](NC(=O)C(C#N)=Cc1cccc(Br)n1)c1ccccc1` in this test.
stdout: active

stdin: // return assay outcome for `COc1ccc(CCC(=O)c2c(O)cc(O[C@@H]3O[C@H](CO)[C@@H](O)[C@H](O)[C@@H]3O[C@@H]3O[C@@H](C)[C@H](O)[C@@H](O)[C@@H]3O)cc2O)cc1O`
stdout: inactive

stdin: Per the records of this test, what outcome belongs to `C=CCNc1c(O)cc2c(O)c1C[C@@H](C)C[C@H](OC)[C@@H](O)[C@@H](C)C=C(C)[C@H](OC(N)=O)[C@@H](OC)C=CC=C(C)C(=O)N2` ?
stdout: active

----------
- assay.comment: qHTS drug screen for cell cycle checkpoint inhibitors in PARPi-resistant BRCA-mutant ovarian cancer cell lines. (AID 1963452)
- measurement.context: PEO1/OlaR viability, CellTiter-Glo luminescence, 96 h; measured here: PEO4 Z-AUC; stronger effect = lower value
Mark criterion met for Z-AUC under -0.6, criterion not met if at or over.

- compound: "OC[C@H]1OC(O)C[C@@H](O)[C@H]1O (stereo partly specified)"
  assigned.label: "criterion met"
- compound: "C[C@H](NC(=O)[C@@H](O)c1cc(F)cc(F)c1)C(=O)N[C@@H]1C(=O)N(C)c2ccccc2-c2ccccc21"
  assigned.label: "criterion not met"
- compound: "Nc1nc2c(c(=O)[nH]1)N(C=O)[C@H](CNc1ccc(C(=O)N[C@@H](CCC(=O)O)C(=O)O)cc1)CN2"
  assigned.label: "criterion not met"

stdin: I'd appreciate it if you could check whether `COc1ccc(C=Cc2cc(OC)c(OC)c(OC)c2)cc1NC(=O)[C@H](N)CO` has Z-AUC smaller than -0.6.
stdout: criterion met

stdin: In the record for `Oc1ccc([C@@H]2Oc3ccc(O)cc3[C@@H]3CCC[C@@H]32)cc1` , is Z-AUC less than -0.6?
stdout: criterion not met

These entries and their values trace back to PubChem BioAssay (NCATS).
